# testProtocol: Selectivity index, ratio of IC50 for HEK293 cells to IC50 for bloodstream form of Trypanosoma brucei brucei Lister 427
# Assay type: toxicity
# measurementParameters: human, read-out: Ratio IC50
For each record, write down the corresponding selectivity ratio.
Give only the figure.

Entry under review: CN(c1ccc(NC(=O)c2ccc(C(F)(F)F)cc2C(F)(F)F)cc1OCc1cccc(C(F)(F)F)c1)S(C)(=O)=O . Reported selectivity ratio?
10

Record request: selectivity ratio value, item CN(c1ccc(NC(=O)c2cc(C(F)(F)F)cc(C(F)(F)F)c2)cc1OCc1cccc(C(F)(F)F)c1)S(C)(=O)=O
6

###

# testProtocol: Selectivity index, ratio of IC50 for mouse […] cells to IC50 for bloodstream form of Trypanosoma brucei brucei Lister 427
# Assay type: toxicity
# measurementParameters: read-out: Ratio IC50
Task for the reader: assign each of the following molecules its reported selectivity ratio.

Any idea what its selectivity ratio is? The molecule is CCCCCCOc1cc(NC(=O)c2cc(C(F)(F)F)cc(C(F)(F)F)c2)ccc1N(C)S(C)(=O)=O
> 22

Find the recorded selectivity ratio belonging to CN(c1ccc(NC(=O)c2cc(C(F)(F)F)cc(C(F)(F)F)c2)cc1OCc1ccccc1C(F)(F)F)S(C)(=O)=O and report it.
> 51

Param item = CN(c1ccc(NC(=O)c2cc(C(F)(F)F)cc(C(F)(F)F)c2)cc1OCc1ccc(C(F)(F)F)cc1)S(=O)(=O)Cc1ccccc1 ; retrieve measured selectivity ratio.
86

Param item = Cc1ccc(C(F)(F)F)cc1COc1cc(NC(=O)c2ccc(C(F)(F)F)cc2C(F)(F)F)ccc1N(C)S(C)(=O)=O ; retrieve measured selectivity ratio.
> 38
